# TARGET_OR_SYSTEM: Helios (Homo sapiens, UniProt Q96SW2+Q9UKS7)
# Sequence (Q9UKS7 whole entry): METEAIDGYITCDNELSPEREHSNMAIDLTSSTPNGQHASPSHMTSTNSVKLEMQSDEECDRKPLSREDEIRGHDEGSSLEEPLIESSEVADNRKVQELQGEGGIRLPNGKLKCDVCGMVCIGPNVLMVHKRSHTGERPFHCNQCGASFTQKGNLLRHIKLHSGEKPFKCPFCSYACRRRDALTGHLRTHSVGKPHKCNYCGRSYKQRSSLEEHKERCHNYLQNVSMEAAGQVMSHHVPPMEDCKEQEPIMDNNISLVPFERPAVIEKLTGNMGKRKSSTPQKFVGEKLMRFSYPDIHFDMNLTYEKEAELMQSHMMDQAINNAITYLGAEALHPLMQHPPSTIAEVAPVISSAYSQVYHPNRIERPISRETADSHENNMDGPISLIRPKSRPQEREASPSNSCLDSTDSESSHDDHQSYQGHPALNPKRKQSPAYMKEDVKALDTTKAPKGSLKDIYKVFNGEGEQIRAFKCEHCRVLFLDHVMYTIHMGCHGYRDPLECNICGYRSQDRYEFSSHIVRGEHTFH
# Sequence (Q96SW2 whole entry): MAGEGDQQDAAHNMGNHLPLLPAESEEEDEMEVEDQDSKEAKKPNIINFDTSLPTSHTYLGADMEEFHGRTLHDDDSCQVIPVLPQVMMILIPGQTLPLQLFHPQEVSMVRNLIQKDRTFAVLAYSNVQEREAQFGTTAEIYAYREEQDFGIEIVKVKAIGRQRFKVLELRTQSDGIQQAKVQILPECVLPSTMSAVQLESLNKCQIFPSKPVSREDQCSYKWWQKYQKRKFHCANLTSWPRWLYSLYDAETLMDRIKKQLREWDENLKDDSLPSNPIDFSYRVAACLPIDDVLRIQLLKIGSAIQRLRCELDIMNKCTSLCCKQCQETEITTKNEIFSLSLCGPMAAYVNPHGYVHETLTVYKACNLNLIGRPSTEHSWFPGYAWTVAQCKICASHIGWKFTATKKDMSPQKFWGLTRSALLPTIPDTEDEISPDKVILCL
# Sequence (Q16531 whole entry partner): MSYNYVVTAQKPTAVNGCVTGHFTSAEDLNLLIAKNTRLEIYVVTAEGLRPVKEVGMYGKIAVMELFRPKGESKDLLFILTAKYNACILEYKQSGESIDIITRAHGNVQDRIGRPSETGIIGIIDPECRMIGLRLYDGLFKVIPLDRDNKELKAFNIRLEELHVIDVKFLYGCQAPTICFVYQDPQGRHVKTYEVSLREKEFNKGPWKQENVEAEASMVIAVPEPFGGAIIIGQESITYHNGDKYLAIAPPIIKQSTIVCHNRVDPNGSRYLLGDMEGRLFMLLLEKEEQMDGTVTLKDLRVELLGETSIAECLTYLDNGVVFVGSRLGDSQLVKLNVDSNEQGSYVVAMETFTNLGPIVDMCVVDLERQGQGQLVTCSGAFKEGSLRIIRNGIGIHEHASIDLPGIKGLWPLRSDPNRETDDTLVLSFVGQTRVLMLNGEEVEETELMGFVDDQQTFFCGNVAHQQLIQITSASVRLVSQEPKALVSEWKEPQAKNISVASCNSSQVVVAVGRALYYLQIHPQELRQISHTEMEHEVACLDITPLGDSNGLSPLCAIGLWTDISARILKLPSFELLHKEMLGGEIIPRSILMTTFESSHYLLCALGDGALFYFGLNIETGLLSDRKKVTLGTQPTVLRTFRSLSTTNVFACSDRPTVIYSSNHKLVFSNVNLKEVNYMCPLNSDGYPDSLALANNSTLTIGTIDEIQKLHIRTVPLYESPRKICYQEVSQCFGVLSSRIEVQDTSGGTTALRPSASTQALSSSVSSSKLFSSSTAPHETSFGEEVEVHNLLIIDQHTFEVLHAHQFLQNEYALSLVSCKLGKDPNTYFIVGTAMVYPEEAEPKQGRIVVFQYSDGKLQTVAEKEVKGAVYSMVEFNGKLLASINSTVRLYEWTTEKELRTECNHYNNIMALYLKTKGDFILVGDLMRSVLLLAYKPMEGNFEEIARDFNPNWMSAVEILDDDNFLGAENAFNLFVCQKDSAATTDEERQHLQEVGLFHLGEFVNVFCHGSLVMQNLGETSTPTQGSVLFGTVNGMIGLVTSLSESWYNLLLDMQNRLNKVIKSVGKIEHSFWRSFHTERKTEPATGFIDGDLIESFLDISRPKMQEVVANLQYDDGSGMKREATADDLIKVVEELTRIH
# ASSAY_METHOD_TEXT: Helios Cellular Degradation Assay (Helios readout)
# Type: cell-based
# Parameters: endogenous in cells; host or cells: Jurkat
# TEST_PARAMETERS: Jurkat cells, 72 h incubation, Helios-PE antibody staining, flow cytometry; read-out: Helios Jurkat IC50
MEASURE: DC50 (nM)

Below: 4 molecules and their reported DC50.
INSERT INTO results (molecule, measure, unit_of_measure, endpoint_value) VALUES
  ('Cc1cc(-c2ccc3c(c2)CN(C2CCC(=O)NC2=O)C3=O)nc(N)n1 (centres unmarked)', 'DC50', 'nM', 610),
  ('COc1cnc(-c2ccc3c(c2)CN(C2CCC(=O)NC2=O)C3=O)c2ccccc12 (centres unmarked)', 'DC50', 'nM', 10),
  ('Cc1cc(-c2ccc3c(c2)CN(C2CCC(=O)NC2=O)C3=O)nc(C)c1N (centres unmarked)', 'DC50', 'nM', 240),
  ('Nc1nc(-c2ccc3c(c2)CN([C@@H]2CCC(=O)NC2=O)C3=O)cc2ccccc12', 'DC50', 'nM', 30);

(P) CCCc1cc(-c2ccc3c(c2)CN(C2CCC(=O)NC2=O)C3=O)nc(N)c1C#N (centres unmarked)
(Q) Nc1cc(C(F)(F)F)cc(-c2ccc3c(c2)CN(C2CCC(=O)NC2=O)C3=O)n1 (centres unmarked) [Example 120]
(R) O=Cc1cc2c(-c3ccc4c(c3)CN(C3CCC(=O)NC3=O)C4=O)nccc2s1 (centres unmarked)
(S) CCNc1nc2ccccc2nc1-c1ccc2c(c1)CN(C1CCC(=O)NC1=O)C2=O (centres unmarked)
Hey, can you sort those molecules up there by DC50, smallest first? # list labels per requested ordering
R, P, Q, S

----------
# TARGET_OR_SYSTEM: Helios (Homo sapiens, UniProt Q96SW2+Q9UKS7)
# ASSAY_METHOD_TEXT: Helios Cellular Degradation Assay (Helios readout)
# Assay type: cell-based
# Parameters: endogenous in cells; host or cells: Jurkat
# TEST_PARAMETERS: Jurkat cells, 72 h incubation, Helios-PE antibody staining, flow cytometry; read-out: Helios Jurkat IC50
MEASURE: DC50 (µM)

Guide cases for DC50, answers given:
INSERT INTO assay_data (compound, unit_of_measure, endpoint_value) VALUES
  ('N#Cc1ccc(-c2ccc3c(c2)CN(C2CCC(=O)NC2=O)C3=O)nc1N (centres unmarked) [Example 166]', 'µM', 0.02),
  ('CC(=O)Nc1ccc2c(-c3ccc4c(c3)CN(C3CCC(=O)NC3=O)C4=O)nccc2c1 (centres unmarked) [Example 134]', 'µM', 0.1),
  ('CCn1ncc2c(-c3ccc4c(c3)CN(C3CCC(=O)NC3=O)C4=O)nc(N)nc21 (centres unmarked) [Example 45]', 'µM', 0.43),
  ('Cc1cc(-c2ccc3c(c2)CN(C2CCC(=O)NC2=O)C3=O)ncc1C#N (centres unmarked) [Example 152]', 'µM', 0.76),
  ('NC(=O)c1ccc(-c2ccc3c(c2)CN(C2CCC(=O)NC2=O)C3=O)nn1 (centres unmarked) [Example 78]', 'µM', 2.8);

(a) Nc1cc(-c2ccc3c(c2)CN(C2CCC(=O)NC2=O)C3=O)nc2ccccc12 (centres unmarked) [Example 8]
(b) O=C1CCC(N2Cc3cc(-c4cc5ccccc5cn4)ccc3C2=O)C(=O)N1 (centres unmarked) [Example 67]
Would you let me know which has the greater DC50 value, a or b ? // return label of chosen record
b
(b: 0.042 µM, a: 0.025 µM)
